# assayTarget: T1, A139 iCAPS (CB1 with ICL3 native sequence replaced with BRIL) (human, UniProt P21554 99-414)
# T1 construct: The insert stands inside the chain in place of ICL3
# T1 sequence (P21554 whole entry): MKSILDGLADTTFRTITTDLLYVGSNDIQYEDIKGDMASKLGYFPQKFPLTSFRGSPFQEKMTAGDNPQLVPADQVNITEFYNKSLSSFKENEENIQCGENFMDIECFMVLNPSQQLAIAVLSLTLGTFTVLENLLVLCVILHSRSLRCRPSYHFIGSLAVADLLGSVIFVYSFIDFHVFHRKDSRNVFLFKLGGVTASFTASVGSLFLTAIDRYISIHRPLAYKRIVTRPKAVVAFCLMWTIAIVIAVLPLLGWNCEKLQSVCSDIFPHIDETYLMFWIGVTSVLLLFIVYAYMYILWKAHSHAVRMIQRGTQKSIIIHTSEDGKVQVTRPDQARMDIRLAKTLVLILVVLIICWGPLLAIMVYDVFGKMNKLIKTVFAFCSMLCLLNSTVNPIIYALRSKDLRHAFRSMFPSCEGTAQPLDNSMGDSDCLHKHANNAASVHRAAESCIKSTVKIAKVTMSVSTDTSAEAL
# experimentSummary: ELISA, purified IgG on A139 CB1 iCAPS
pEC50: −log10 of the molar value.

# binder, pEC50
rows = [
    ("PA2LR3-P3B10 (chimeric) (antibody, V domains shown) VH: EVQLQQSGAELVRPGSSVKISCKASGYAFSYYWMNWVKQRPGQGLEWIGQIYPGDGDTNYNGKFKGKATLTADKSSSTAYMQLSSLTSEDSAVYFCARSHGNYFPYWGQGTLVTVSA VL: DIVITQSPAIVSASLGERVTMTCTASSSVSSSYLHWYQQKPGSSPKLWIYSTSNLASGVPARFSGSGSGTSYSLTISSMEAEDAATYYCQQWSSYPLTFGAGTKLEIKR", 9.11),
    ("PA13R3-P1C4 (chimeric) IgG (antibody, V domains shown, Phage-derived mouse variable regions on human constant regions; also called Chimeric P1C4-IgG; PA13R3-P1C4 IgG) VH: EVQLQQSGAELVRPGVSVKISCKASGYEFSYYWMNWVKQRPGQGLEWIGQIYPGDGETKYNGKFKGKATLTADKSSNTAYMQLSSLTSEDSAVYFCARSHGNYLPYWGQGTLVTVSA VL: DIVLTQSPAIMSASLGERVTMTCTASSSVSSSYLHWYQQKPGSSPKLWIYSTSNLASGVPARFSGSGSGTSYSLTISSMEAEDAATYYCHQYHRSPPTFGAGTKLELKR", 9.76),
    ("PA2LR3-P1G6 (chimeric) (antibody, V domains shown) VH: EVQLQQSGAELVRPGSSVKISCKASGYAFSYYWMNWVKQRPGQGLEWIGQIYPGDGDTNYNGKFKGKATLTVDKSSSTAYMQLSSLTSEDSAVYFCARSHGNYFAYWGQGTLVTVSA VL: DIVLSQSPAIMSASLGERVTMTCTASSSVSSSYLHWYQQKPGSSPKLWIYSTSNLASGVPARFSGSGSGTSYSLTISRMEAEDAATYYCQQWSSYPLTFGAGTKLELKR", 7.46),
    ("PA2LR3-P2B8 (chimeric) (antibody, V domains shown) VH: EVQLQQSGAELVRPGSSVKISCKASGYAFSYYWMNWVKQRPGQGLEWIGQIYPGDGDTNYNGKFKGKATLTADKSSSTAYMQLSSLTSEDSAVYFCARSHGNYFAYWGQGTLVTVSA VL: DIVMTQSPAIMSASLGERVTMTCTASSSISSSYLHWYQQKPGSSPKLWIYSTSNLASGVPARFSGSGSGTSYSLTISSMEAEDAATYYCHQYHRSPLAFGAGTKLELKR", 8.74),
    ("PA2LR3-P4C6 (chimeric) (antibody, V domains shown) VH: EVQLQQSGAELVRPGSSVKISCKASGYAFSYYWMNWVKQRPGQGLEWIGQIYPGDGDTNYNGKFKGKATLTADKSSSTAYMQLSSLTSEDSAVYFCARSHGNYFPYWGQGTLVTVSA VL: DIVITQSPAIVSASLGERVTMTCTASSSVSSSYLHWYQQKPGSSPKLWIYSTSNLASGVPARFSGSGSGTSYSLTISSMEAEDAATYYCQQWSSYPLTFGAGTKLEIKR", 9.40),
]
